These measurements were taken from BindingDB's records for doi:10.1021/jm010576e.

# PROCEDURE_SUMMARY: Binding affinity using guinea pig brain membrane preparations, towards Opioid receptor delta 1 using [3H]DPDPE as radioligand
pKi: −log10 of the molar value.
QUANTITY_KIND: pKi

MOL | VALUE_REPORTED
CC[C@@H]1CN2CCc3c([nH]c4ccccc34)[C@@H]2C[C@@H]1/C(=C\OC)C(=O)OC | 5.54
CC[C@@H]1CN2CC[C@@]3(O)C(=Nc4cccc(OC)c43)[C@@H]2C[C@@H]1/C(=C\OC)C(=O)OC | 6.81
CC[C@@H]1CN2CCc3c([nH]c4cccc(O)c34)[C@@H]2C[C@@H]1/C(=C\OC)C(=O)OC | 4.51
CC[C@@H]1CN2CCc3c([nH]c4cccc(OC)c34)[C@@H]2C[C@@H]1/C(=C\OC)C(=O)OC | 7.22
